These measurements were taken from paper PMC6522372.

A short record of Kd observed with McsB (Geobacillus stearothermophilus, UniProt P0DMM5) follows.
Sequence (P0DMM5 whole entry): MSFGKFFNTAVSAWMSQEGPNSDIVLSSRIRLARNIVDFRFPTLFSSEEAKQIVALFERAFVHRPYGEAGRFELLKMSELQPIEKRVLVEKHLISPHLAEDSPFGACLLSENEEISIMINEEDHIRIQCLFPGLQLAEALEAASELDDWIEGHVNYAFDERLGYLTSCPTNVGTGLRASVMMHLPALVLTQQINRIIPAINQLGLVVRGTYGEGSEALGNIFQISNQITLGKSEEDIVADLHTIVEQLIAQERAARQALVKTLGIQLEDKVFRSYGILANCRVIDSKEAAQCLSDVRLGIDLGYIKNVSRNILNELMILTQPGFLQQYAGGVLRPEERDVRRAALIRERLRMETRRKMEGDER
// note: answer is a bare numeric in µM

Q) Note Kd for the compound shown: Nc1ncnc2c1ncn2[C@@H]1O[C@H](COP(=O)(O)OP(=O)(O)OP(=O)(O)O)[C@@H](O)[C@H]1O
A) 262

Q) Note Kd for the compound shown: Nc1ncnc2c1ncn2[C@@H]1O[C@H](COP(=O)(O)OP(=O)(O)O)[C@@H](O)[C@H]1O
A) 208
